pKd: −log10 of the molar value.
// read-out pKd, gathered for Tyrosine-protein kinase JAK3 (Homo sapiens, UniProt P52333) from published studies

Some solved entries appear below for comparison.
Exercise: Name the recorded pKd for Cc1cc(Nc2nc(S(=O)(=O)c3ccc(F)cc3)nc3c2cnn3CCN2CCOCC2)n[nH]1 .
Solution: 7.00 to 8.00

Exercise: # repeat for Cc1cc(Nc2nc(S(=O)(=O)c3ccc(F)cc3)nc3c2cnn3C2CCOCC2)n[nH]1
Solution: 7.00 to 8.00

Exercise: Next compound: Cc1cc(Nc2nc(C(F)(F)c3ccc(F)cn3)nc3cc(C#N)ccc23)n[nH]1
Solution: 7.00 to 8.00

Exercise: What about this compound? Cc1cc(CNc2[nH]nc(Nc3ccc(N4CCSCC4)cc3)c2C(N)=O)cc(C)c1O
Solution: < 6.00

Next:
Exercise: What does the data say about its pKd? Entry: Cc1cc(Nc2nc(C(F)(F)c3ccc(F)cc3)nc3c2cnn3CCN2CCOCC2)n[nH]1
Solution: 7.00 to 8.00

Exercise: Thanks! And Cc1cc(Nc2nc(C(F)(F)c3ccc(F)cn3)nc3c(F)cccc23)n[nH]1 ?
Solution: ≥ 8.00

Exercise: Now the same for Cc1cc(Nc2nc(C(F)(F)c3ccc(F)cn3)nc3c(C#N)cccc23)n[nH]1
Solution: 7.00 to 8.00

----------
Before we begin, note that these Kd values for UniProt:P52333 originate from several publications.

Some entries whose results are on file:
Exercise: Data request, read-out Kd, for Cc1cc(CNc2[nH]nc(Nc3ccc(N4C[C@@H](C)O[C@@H](C)C4)cc3)c2C(N)=O)cc(C)c1O
Solution: > 1000 nM

Exercise: Then Cc1cc(Nc2nc(C(O)c3ccc(F)c(F)c3)nc3ccccc23)n[nH]1 (racemic) ?
Solution: ≤ 10 nM

More entries:
Exercise: Reported Kd for Cc1cc(CNc2[nH]nc(Nc3ccc(N(C)C)cc3)c2C(N)=O)cc(C)c1O : what is it?
Solution: > 1000 nM

Exercise: Please give the result for Cc1cc(Nc2nc(C(F)(F)c3ccc(F)cn3)nc3c(C(N)=O)cccc23)n[nH]1 too.
Solution: ≤ 10 nM

Exercise: Same question, Cc1cc(Nc2nc(C(F)(F)c3ccc(F)cc3)nc3cc(CO)ccc23)n[nH]1 this time
Solution: ≤ 10 nM

Exercise: Same again, this time with Cc1cc(CNc2[nH]nc(Nc3ccc(N4CCN(C)CC4)c(Cl)c3)c2C(N)=O)cc(C)c1O
Solution: > 1000 nM

Exercise: What do you have for Cc1cc(Nc2nc(C(=O)c3ccc(F)cc3)nc3ccccc23)n[nH]1 ?
Solution: 10 to 100 nM

Exercise: Entry to check: COC(c1ccc(F)cc1)c1nc(Nc2cc(C)[nH]n2)c2ccccc2n1 (racemic)
Solution: 10 to 100 nM

----------
pKd: −log10 of the molar value.
Values of pKd for Tyrosine-protein kinase JAK3 (Homo sapiens), collected from a number of published sources:

Please review the entries below; each comes with its answer.
Exercise: Returns the measured pKd for the input compound. Input: CCn1ncc2c(Nc3cc(C)[nH]n3)nc(Sc3ccc(F)cc3)nc21
Solution: < 7.00

Exercise: Same for Cc1cc(Nc2nc(C(=O)c3ccc(F)cc3)nc3c(F)cccc23)n[nH]1
Solution: < 7.00

Exercise: Same lookup for Cc1cc(CNc2[nH]nc(Nc3ccc(N4CCC(N5CCC(C)CC5)CC4)cc3)c2C(N)=O)cc(C)c1O , please.
Solution: < 6.00

Exercise: Same thing, different compound: Fc1ccc(C(F)(F)c2nc(Nc3cc[nH]n3)c3ccc(F)cc3n2)cc1
Solution: 7.00 to 8.00

Next:
Exercise: Any idea what pKd was measured for Cc1cc(Nc2n[nH]c(NCc3cc(C)c(O)c(C)c3)c2C(N)=O)ccc1N1CCCCC1 ?
Solution: < 6.00

Exercise: Next record, please: Cc1cc(CNc2[nH]nc(Nc3ccc(-n4cccc4)cc3)c2C(N)=O)cc(C)c1O
Solution: < 6.00

Exercise: Now consider Cc1cc(CNc2[nH]nc(Nc3ccc(N4CCC(C(C)C)CC4)cc3)c2C(N)=O)cc(C)c1O .
Solution: < 6.00

Exercise: Try the compound COc1ccccc1C(O)c1nc(Nc2cc(C)[nH]n2)c2ccccc2n1 (racemic)
Solution: 7.00 to 8.00

----------
Literature survey of Kd (system: Tyrosine-protein kinase JAK3 (Homo sapiens, UniProt P52333)).

Exercise: I have this compound here, Cc1cc(Nc2nc(C(F)(F)c3ccc(F)cc3)nc3cc(F)ccc23)n[nH]1 , and I need its recorded Kd.
Solution: 10 to 100 nM

Exercise: Then Cc1cc(Nc2nc(C(F)(F)c3ccc(F)cc3)nc3nc(C#N)sc23)n[nH]1 ?
Solution: 10 to 100 nM

Exercise: And what about the compound Cc1cc(Nc2nc(C3(c4ccc(F)cc4)OCCO3)nc3ccccc23)n[nH]1 ?
Solution: 10 to 100 nM

Exercise: Param item: Cc1cc(Nc2nc(C(F)(F)c3ccc(F)cn3)nc3c(NC=O)cccc23)n[nH]1
Solution: ≤ 10 nM

Exercise: What about Cc1cc(Nc2nc(C(F)(F)c3ccc(F)cn3)nc3c(N4CCOCC4=O)cccc23)n[nH]1 ?
Solution: ≤ 10 nM

New cases:
Exercise: Any idea what its Kd is? The compound is Cc1cc(CNc2[nH]nc(Nc3ccc(CN4CCOCC4)cc3)c2C(N)=O)cc(C)c1O
Solution: > 1000 nM

Exercise: Try this compound next: Cc1cc(Nc2nc(C(F)(F)c3ccc(F)cc3)nc3c2cnn3C)n[nH]1
Solution: 10 to 100 nM

Exercise: What about C[C@H]1Nc2ccn3ncc(c3n2)C(=O)NCCOc2ccc(F)cc21 ?
Solution: 1.8 nM

----------
Multiple publications report pKd for Tyrosine-protein kinase JAK3 (Homo sapiens, UniProt P52333); what follows is a combined list.
pKd: −log10 of the molar value.

Exercise: Return reported pKd; argument: Cc1cc(CNc2[nH]nc(Nc3ccc(N4CCN(C(=O)N5CCCC5)CC4)cc3)c2C(N)=O)cc(C)c1O
Solution: < 6.00

Exercise: // next record Cc1cc(CNc2[nH]nc(Nc3ccc(N4CCOCC4)nc3)c2C(N)=O)cc(C)c1O
Solution: < 6.00

Exercise: Now try Cc1cc(Nc2nc(C(O)c3ccc(F)c(Cl)c3)nc3ccccc23)n[nH]1 (stereo not shown) .
Solution: ≥ 8.00

Now turn to the next compound.
Exercise: Fill in: pKd of Cc1cc(Nc2nc(C(F)(F)c3ccc(F)cn3)nc3cc(S(C)(=O)=O)ccc23)n[nH]1 is ___
Solution: ≥ 8.00

----------
Kd values for Tyrosine-protein kinase JAK3 (Homo sapiens, UniProt P52333), compiled from several publications.

Exercise: What Kd appears in the records for this molecule with Tyrosine-protein kinase JAK3 (Homo sapiens, UniProt P52333)? COc1cc(Nc2nc(C(F)(F)c3ccc(F)cn3)nc3ccccc23)n[nH]1
Solution: 10 to 100 nM

Exercise: Now the same for Cc1cc(CNc2[nH]nc(Nc3ccc(N4CCN(C(C)C)CC4)c(Cl)c3)c2C(N)=O)cc(C)c1O
Solution: 100 to 1000 nM

Exercise: Consider next the molecule Cc1cc(Nc2nc(C(F)(F)c3ccc(F)cn3)nc3cc(Cl)ccc23)n[nH]1 in the same way.
Solution: 10 to 100 nM

Exercise: Another molecule: Cn1cc2c(Nc3cc[nH]n3)nc(C(F)(F)c3ccc(F)cc3)nc2n1
Solution: 10 to 100 nM

Exercise: Cc1cc(CNc2[nH]nc(Nc3ccc(-c4ccccc4)cc3)c2C(N)=O)cc(C)c1O , same question.
Solution: > 1000 nM

Exercise: Now give it for Cc1cc(CNc2[nH]nc(Nc3ccc(CN4CCCCC4)cc3)c2C(N)=O)cc(C)c1O too.
Solution: 100 to 1000 nM

Exercise: Now the molecule O=C(c1ccc(F)cc1)c1nc(Nc2cc[nH]n2)c2ccc(I)cc2n1
Solution: > 100 nM

Exercise: Follow-up item: Cc1cc(Nc2nc(C(F)(F)c3ncc(F)cn3)nc3c(Cl)cccc23)n[nH]1
Solution: 10 to 100 nM

----------
pKd: −log10 of the molar value.
Multi-source literature compilation: pKd on Tyrosine-protein kinase JAK3 (Homo sapiens).

Sample answers from the record:
Exercise: GET /values?readout=pKd&item= OC(c1ccc(F)cc1)c1nc(Nc2cc[nH]n2)c2cc(F)ccc2n1 (racemic)
Solution: < 7.00

Exercise: Follow-up item: Cc1cc(Nc2nc(C(F)(F)c3ccc(F)cc3)nc3cc(CS(C)(=O)=O)ccc23)n[nH]1
Solution: ≥ 8.00

Exercise: Also COCCOc1ccc2c(Nc3cc(C)[nH]n3)nc(C(O)c3ccc(F)cc3)nc2c1 (racemic) , if possible.
Solution: ≥ 8.00

Exercise: Moving on to the next compound: Cc1cnc(Nc2nc(C(F)(F)c3ccc(F)cn3)nc3ccccc23)s1
Solution: < 7.00

New cases:
Exercise: Give its pKd value. Item: Fc1ccc(C(F)(F)c2nc(Nc3cc[nH]n3)c3ccccc3n2)cc1
Solution: 7.00 to 8.00

Exercise: Param item: Cc1cc(CNc2[nH]nc(Nc3ccc(N4CCOCC4)c(F)c3)c2C(N)=O)cc(C)c1O
Solution: < 6.00

Exercise: And what about the compound Cc1cc(Nc2n[nH]c(NCc3cc(C)c(O)c(C)c3)c2C(N)=O)cnc1N1CCN(C)CC1 ?
Solution: < 6.00

Exercise: Another: Cc1cc(Nc2nc(S(=O)(=O)c3ccc(F)cc3)nc3c2ccn3CCO)n[nH]1
Solution: ≥ 8.00

Exercise: Also Cc1cc(Nc2nc(C(F)(F)c3ccc(F)cn3)nc3c(S(C)(=O)=O)cccc23)n[nH]1 ?
Solution: 7.00 to 8.00

Exercise: How about this compound: Cc1cc(Nc2nc(C(F)(F)c3ccc(F)cn3)nc3cc(F)ccc23)n[nH]1
Solution: 7.00 to 8.00

Exercise: Now give it for Cc1cc(Nc2nc(C(=O)c3cccc(F)c3)nc3ccccc23)n[nH]1 too.
Solution: 7.00 to 8.00

Exercise: For Cc1cc(CNc2[nH]nc(Nc3ccc(N4CCOCC4)cn3)c2C(N)=O)cc(C)c1O then?
Solution: < 6.00

Exercise: Again, but for Cc1cc(Nc2nc(C(F)(F)c3ccc(F)cc3)nc3ncsc23)n[nH]1
Solution: 7.00 to 8.00

Exercise: Next entry: Fc1ccc(C(F)(F)c2nc(Nc3cc(C4CC4)[nH]n3)c3ccccc3n2)cc1
Solution: ≥ 8.00

Exercise: Repeat with Cc1cc(Nc2nc(C(O)c3ccc(F)cc3)nc3cc(OCCO)ccc23)n[nH]1 (racemic)
Solution: ≥ 8.00

Exercise: Again, but for Cc1cc(CNc2[nH]nc(Nc3ccc(N4CCC(C)CC4)cc3)c2C(N)=O)cc(C)c1O
Solution: < 6.00
